The reported numbers originate from paper PMC12416685.

This listing pairs compounds with measured pIC50.
biological target: EGFR (Homo sapiens)
Sequence (P00533 25-1210): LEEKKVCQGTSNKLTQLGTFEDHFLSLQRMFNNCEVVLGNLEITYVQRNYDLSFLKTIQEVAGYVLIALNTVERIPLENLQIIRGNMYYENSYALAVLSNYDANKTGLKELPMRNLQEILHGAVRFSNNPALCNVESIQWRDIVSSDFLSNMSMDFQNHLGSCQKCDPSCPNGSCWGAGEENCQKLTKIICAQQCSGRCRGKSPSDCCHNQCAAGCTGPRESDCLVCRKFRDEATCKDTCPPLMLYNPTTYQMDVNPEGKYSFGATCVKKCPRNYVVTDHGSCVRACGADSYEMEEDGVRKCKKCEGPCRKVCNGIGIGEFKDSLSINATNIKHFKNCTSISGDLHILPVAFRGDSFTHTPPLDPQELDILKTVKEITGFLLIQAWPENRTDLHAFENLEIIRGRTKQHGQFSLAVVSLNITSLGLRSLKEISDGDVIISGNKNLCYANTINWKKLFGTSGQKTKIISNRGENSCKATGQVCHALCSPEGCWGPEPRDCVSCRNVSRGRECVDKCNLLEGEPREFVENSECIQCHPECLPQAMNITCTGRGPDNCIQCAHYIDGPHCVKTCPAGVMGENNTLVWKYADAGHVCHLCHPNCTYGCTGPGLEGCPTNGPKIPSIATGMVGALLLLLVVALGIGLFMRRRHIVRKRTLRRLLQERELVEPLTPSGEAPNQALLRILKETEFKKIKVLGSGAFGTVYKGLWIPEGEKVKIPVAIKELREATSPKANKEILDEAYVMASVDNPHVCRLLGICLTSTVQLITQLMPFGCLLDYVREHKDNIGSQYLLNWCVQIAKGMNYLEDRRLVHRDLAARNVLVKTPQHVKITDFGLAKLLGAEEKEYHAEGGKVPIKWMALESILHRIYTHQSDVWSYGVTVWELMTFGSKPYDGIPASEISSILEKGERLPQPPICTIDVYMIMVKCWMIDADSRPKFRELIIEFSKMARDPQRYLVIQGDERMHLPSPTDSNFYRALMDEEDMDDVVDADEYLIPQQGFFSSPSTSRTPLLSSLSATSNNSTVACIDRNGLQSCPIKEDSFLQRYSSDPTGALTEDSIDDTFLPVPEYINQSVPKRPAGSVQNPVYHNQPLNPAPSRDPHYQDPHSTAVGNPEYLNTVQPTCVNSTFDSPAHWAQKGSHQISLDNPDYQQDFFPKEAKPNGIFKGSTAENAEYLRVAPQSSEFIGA
Hey, just a heads up that pIC50 is the negative log base 10 of the concentration in molar.

1) CC(C)[C@@H]1C[C@@H](O)[C@H]2[C@@]1(C)CC[C@@]1(C)[C@H]3C(=CC[C@]21C)[C@@]1(C)CC[C@H](O)C(C)(C)[C@@H]1C[C@@H]3O [Ru-B, rubiarbonol B] ... 5.12

Next compound, pIC50 to be filled in.
Field pIC50 (system: EGFR (Homo sapiens)) for entry CC(=O)O[C@H]1CC[C@]2(C)C3=CC[C@]4(C)[C@H]5[C@H](O)C[C@@H](C(C)C)[C@]5(C)CC[C@@]4(C)[C@@H]3[C@@H](O)C[C@H]2C1(C)C [ARu-B, 3-O-acetylrubiarbonol B] = 5.52
